From: patent US4605739A

target: chymotrypsin (Bos taurus, UniProt P00766)
pIC50: −log10 of the molar value.
Criterion: pIC50 meeting or surpassing 6. Met: 1.0. Not met: 0.0.

{"columns": ["Compound", "Discrete Label"],
 "data": [
  ["CCCCc1ccc2[nH]c(C)c(CC(=O)Oc3ccc(C(=O)N4CCN(C(C)C)CC4)cc3)c2c1 [Example 5]", 1.0],
  ["COc1ccc2c(c1)c(CC(=O)Oc1ccc(C(=O)N3CCN(C(C)C)CC3)cc1)c(C)n2C [Example 2]", 1.0],
  ["COc1ccc2[nH]cc(CC(=O)Oc3ccc(C(=O)N4CCN(C(C)C)CC4)cc3)c2c1 [Example 7]", 1.0],
  ["Cc1ccc(S(=O)(=O)NC(Cc2ccccc2)C(=O)CCl)cc1 (stereo not drawn) [TPCK, tosylphenylalanine chloromethyl ketone, reference compound]", 0.0],
  ["COc1ccc2[nH]c(C)c(CC(=O)Oc3ccc(C(=O)N4CCN(C(C)C)CC4)cc3)c2c1 [Example 3]", 1.0]
]}
